Attribution: patent US10011609B2

target: GPR40 (Homo sapiens, UniProt O14842); construct: host or cells: HEK293 (ChemiBrite cell line); assay: Promoter-luciferase assay to measure GPR40 activation (HEK293 cells stably transfected with GPR40 cDNA); type: cell-based; conditions: EC50 in Luciferase assay, HEK293 cells stably transfected with GPR40, 5xSRE-luciferase
Sequence (O14842 whole entry, species assumed): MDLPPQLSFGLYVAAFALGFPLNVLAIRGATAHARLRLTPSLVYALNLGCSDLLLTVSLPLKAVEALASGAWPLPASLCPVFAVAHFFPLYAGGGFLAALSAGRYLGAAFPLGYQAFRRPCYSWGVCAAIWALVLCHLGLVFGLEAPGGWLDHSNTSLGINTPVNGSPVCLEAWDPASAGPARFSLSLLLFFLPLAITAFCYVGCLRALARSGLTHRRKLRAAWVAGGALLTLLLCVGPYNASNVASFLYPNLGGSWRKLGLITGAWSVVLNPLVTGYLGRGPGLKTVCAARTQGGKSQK
ENDPOINT: EC50 (nM)
Your answer should be a plain number; it is taken to be in nM.

Recorded results for 4 molecules are shown here.
CC#C[C@@H](CC(=O)[O][Ca][O]C(=O)C[C@H](C#CC)c1ccc(OCc2cccc(CN3CCc4ccccc4C3)c2)cc1)c1ccc(OCc2cccc(CN3CCc4ccccc4C3)c2)cc1	2.7
CC#C[C@@H](CC(=O)[O][Ca][O]C(=O)C[C@H](C#CC)c1ccc(OCc2cccc(CN3CCc4nc(Cl)sc4C3)c2)cc1)c1ccc(OCc2cccc(CN3CCc4nc(Cl)sc4C3)c2)cc1	5.6
CC#C[C@@H](CC(=O)[O][Ca][O]C(=O)C[C@H](C#CC)c1ccc(OCc2cccc(CN3CCc4oc(C5CC5)nc4C3)c2)cc1)c1ccc(OCc2cccc(CN3CCc4oc(C5CC5)nc4C3)c2)cc1	1.2
CC#C[C@@H](CC(=O)[O][Ca][O]C(=O)C[C@H](C#CC)c1ccc(OCc2cccc(CN3CCc4nc(C)sc4C3)c2)cc1)c1ccc(OCc2cccc(CN3CCc4nc(C)sc4C3)c2)cc1	4.7

// next entry
Prompt line: Missing value: EC50, GPR40 (Homo sapiens, UniProt O14842), entry CC#C[C@@H](CC(=O)[O][Ca][O]C(=O)C[C@H](C#CC)c1ccc(OCc2cccc(CN3CCc4sc(Cl)cc4C3)c2)cc1)c1ccc(OCc2cccc(CN3CCc4sc(Cl)cc4C3)c2)cc1 . Fill in?
Response line: 1.7
